Target or system: Glucagon-like peptide 1 receptor (Rattus norvegicus) (UniProt P32301)
Assay protocol: Inhibition of [125I]Exendin (9-39) binding to rat GLP1R expressed in HEK293 cells
Format: cell-based
Design: concentration or dose not given beside the values
Condition notes: concentration not given here
Test readout: inhibition (%)

Previously resolved entries follow.
{"Molecule": "COc1cc([C@H]2[C@](NC(=O)c3ccc(NC(=S)Nc4cccc5ccccc45)cc3)(C(=O)O)[C@@H](c3ccc(OC(=O)c4cccs4)c(OC)c3)[C@]2(NC(=O)c2ccc(NC(=S)Nc3cccc4ccccc34)cc2)C(=O)O)ccc1OC(=O)c1cccs1", "Target or system": "Glucagon-like peptide 1 receptor (Rattus norvegicus) (UniProt P32301)", "Result units": "%", "inhibition": 52.3}
{"Molecule": "COc1cc([C@H]2[C@](NC(=O)c3ccc(NC(=O)OC(C)(C)C)cc3)(C(=O)O)[C@@H](c3ccc(OC(=O)c4cccs4)c(OC)c3)[C@]2(NC(=O)c2ccc(NC(=O)OC(C)(C)C)cc2)C(=O)O)ccc1OC(=O)c1cccs1 (stereo in doubt; 3)", "Target or system": "Glucagon-like peptide 1 receptor (Rattus norvegicus) (UniProt P32301)", "Result units": "%", "inhibition": 63.1}
{"Molecule": "COc1cc([C@H]2[C@](NC(=O)c3ccc(NC(=O)OC(C)(C)C)cc3)(C(=O)O)[C@@H](c3ccc(OC(=O)c4cccs4)c(OC)c3)[C@@]2(NC(=O)c2ccc(NC(=O)OC(C)(C)C)cc2)C(=O)O)ccc1OC(=O)c1cccs1", "Target or system": "Glucagon-like peptide 1 receptor (Rattus norvegicus) (UniProt P32301)", "Result units": "%", "inhibition": 55.9}
{"Molecule": "COc1cc([C@H]2[C@](NC(=O)c3ccc(NC(=O)CO)cc3)(C(=O)O)[C@@H](c3ccc(OC(=O)c4cccs4)c(OC)c3)[C@]2(NC(=O)c2ccc(NC(=O)CO)cc2)C(=O)O)ccc1OC(=O)c1cccs1", "Target or system": "Glucagon-like peptide 1 receptor (Rattus norvegicus) (UniProt P32301)", "Result units": "%", "inhibition": 52.7}
{"Molecule": "CCOC(=O)CNC(=O)Nc1ccc(C(=O)N[C@]2(C(=O)O)[C@H](c3ccc(OC(=O)c4cccs4)c(OC)c3)[C@@](NC(=O)c3ccc(NC(=O)NCC(=O)OCC)cc3)(C(=O)O)[C@@H]2c2ccc(OC(=O)c3cccs3)c(OC)c2)cc1", "Target or system": "Glucagon-like peptide 1 receptor (Rattus norvegicus) (UniProt P32301)", "Result units": "%", "inhibition": 37.9}

a = COc1cc([C@H]2[C@](NC(=O)c3ccc(NC(=O)OC(C)(C)C)cc3)(C(=O)O)[C@@H](c3ccc(OCc4ccccc4)c(OC)c3)[C@]2(NC(=O)c2ccc(NC(=O)OC(C)(C)C)cc2)C(=O)O)ccc1OCc1ccccc1
b = COc1cc([C@H]2[C@](NC(=O)c3ccc(NC(=O)C4CCCC4)cc3)(C(=O)O)[C@@H](c3ccc(OC(=O)c4cccs4)c(OC)c3)[C@@]2(NC(=O)c2ccc(NC(=O)C3CCCC3)cc2)C(=O)O)ccc1OC(=O)c1cccs1
c = COc1cc([C@H]2[C@](NC(=O)c3ccc(NC(=O)Nc4cccc(F)c4)cc3)(C(=O)O)[C@@H](c3ccc(OC(=O)c4cccs4)c(OC)c3)[C@]2(NC(=O)c2ccc(NC(=O)Nc3cccc(F)c3)cc2)C(=O)O)ccc1OC(=O)c1cccs1
Task field, ranking: reported inhibition, descending order. Could you list the labels in the order requested?
b, a, c

----------
Target or system: UniProt P32301
Sequence (whole entry): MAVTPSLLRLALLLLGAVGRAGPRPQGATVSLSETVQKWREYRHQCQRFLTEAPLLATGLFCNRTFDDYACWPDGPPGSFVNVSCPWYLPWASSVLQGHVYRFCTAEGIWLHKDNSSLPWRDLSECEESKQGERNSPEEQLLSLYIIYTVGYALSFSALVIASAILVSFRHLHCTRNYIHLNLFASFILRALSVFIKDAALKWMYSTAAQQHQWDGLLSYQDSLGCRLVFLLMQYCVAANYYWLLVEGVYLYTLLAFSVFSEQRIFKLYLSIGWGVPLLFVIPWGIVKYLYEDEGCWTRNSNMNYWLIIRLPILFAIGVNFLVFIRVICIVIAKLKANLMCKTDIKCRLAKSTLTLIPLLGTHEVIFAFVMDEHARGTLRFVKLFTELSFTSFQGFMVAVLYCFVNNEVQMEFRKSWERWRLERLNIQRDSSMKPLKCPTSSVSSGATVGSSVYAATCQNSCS
Assay protocol: Inhibition of [125I]GLP1 (7-36) amide binding to rat GLP1R expressed in HEK293 cells relative to untreated control
Type: cell-based
Design: concentration or dose not given beside the values
Condition notes: concentration not given here
Test readout: inhibition (%)

a = COc1cc([C@H]2[C@](NC(=O)c3ccc(NC(=O)OC(C)(C)C)cc3)(C(=O)O)[C@@H](c3ccc(NC(C)=O)c(OC)c3)[C@]2(NC(=O)c2ccc(NC(=O)OC(C)(C)C)cc2)C(=O)O)ccc1NC(C)=O
b = COc1cc([C@H]2[C@](NC(=O)c3ccc(NC(=O)OC(C)(C)C)cc3)(C(=O)O)[C@H](c3ccc(OC(=O)c4cccs4)c(OC)c3)[C@]2(NC(=O)c2ccc(NC(=O)OC(C)(C)C)cc2)C(=O)O)ccc1OC(=O)c1cccs1
Would you let me know which has the greater inhibition value, a or b ? // caller expects the label of the chosen entry
b

----------
Target or system: UniProt:P32301
Assay protocol: Agonist activity at rat GLP1R expressed in HEK293 cells assessed as stimulation of cAMP levels incubated for 6 hrs by multiple response element/cAMP response element (MRE/CRE)-driven reporter gene assay relative to 10 nM GLP1
Assay type: functional, cell-based
Test readout: Efficacy (%)

1 = COc1cc([C@H]2[C@](NC(=O)c3ccc(NC(=O)OC(C)(C)C)cc3)(C(=O)O)[C@@H](c3ccc(OC(=O)c4cccs4)c(OC)c3)[C@]2(NC(=O)c2ccc(NC(=O)OC(C)(C)C)cc2)C(=O)O)ccc1OC(=O)c1cccs1 (stereo in doubt; 3)
2 = CC(C)(C)OC(=O)Nc1ccc(C(=O)N[C@]2(C(=O)O)[C@H](c3ccc(OCc4ccccc4)cc3)[C@@](NC(=O)c3ccc(NC(=O)OC(C)(C)C)cc3)(C(=O)O)[C@@H]2c2ccc(OCc3ccccc3)cc2)cc1
3 = COc1cc([C@H]2[C@](NC(=O)c3ccc(NC(=O)OC(C)(C)C)cc3)(C(=O)O)[C@@H](c3ccc(OC(C)=O)c(OC)c3)[C@]2(NC(=O)c2ccc(NC(=O)OC(C)(C)C)cc2)C(=O)O)ccc1OC(C)=O
List the items above again, this time ordered by increasing Efficacy. Could you list the labels in the order requested?
2, 3, 1
(2: 24.8%, 3: 43.6%, 1: 96.7%)

----------
Target or system: Glucagon-like peptide 1 receptor (Rattus norvegicus)
Assay protocol: Agonist activity at rat GLP1R expressed in HEK293 cells assessed as stimulation of cAMP levels incubated for 6 hrs by multiple response element/cAMP response element (MRE/CRE)-driven reporter gene assay relative to 10 nM GLP1
Assay type: functional, cell-based
Test readout: Efficacy (%)

Previously resolved entries follow.
{"Input smiles": "CC(C)(C)OC(=O)Nc1ccc(C(=O)N[C@]2(C(=O)O)[C@H](c3ccc(OC(=O)c4cccs4)cc3)[C@@](NC(=O)c3ccc(NC(=O)OC(C)(C)C)cc3)(C(=O)O)[C@@H]2c2ccc(OC(=O)c3cccs3)cc2)cc1", "Efficacy [%]": 63.7}
{"Input smiles": "CNC(=S)Nc1ccc(C(=O)N[C@]2(C(=O)O)[C@H](c3ccc(OC(=O)c4cccs4)c(OC)c3)[C@@](NC(=O)c3ccc(NC(=S)NC)cc3)(C(=O)O)[C@@H]2c2ccc(OC(=O)c3cccs3)c(OC)c2)cc1", "Efficacy [%]": 68}
{"Input smiles": "COc1cc([C@H]2[C@](NC(=O)c3ccc(NC(=O)C(C)C)cc3)(C(=O)O)[C@@H](c3ccc(OC(C)=O)c(OC)c3)[C@]2(NC(=O)c2ccc(NC(=O)C(C)C)cc2)C(=O)O)ccc1OC(C)=O", "Efficacy [%]": 30}

1 = COc1cc([C@H]2[C@](NC(=O)c3ccc(NC(=O)OC(C)(C)C)cc3)(C(=O)O)[C@@H](c3ccc(OC(=O)Cc4ccccc4)c(OC)c3)[C@]2(NC(=O)c2ccc(NC(=O)OC(C)(C)C)cc2)C(=O)O)ccc1OC(=O)Cc1ccccc1
2 = CCC(=O)Nc1ccc(C(=O)N[C@]2(C(=O)O)[C@H](c3ccc(OC(=O)c4cccs4)c(OC)c3)[C@@](NC(=O)c3ccc(NC(=O)CC)cc3)(C(=O)O)[C@@H]2c2ccc(OC(=O)c3cccs3)c(OC)c2)cc1
Would you let me know which has the greater Efficacy value, 1 or 2 ? // caller expects the label of the chosen entry
2

----------
Target or system: Glucagon-like peptide 1 receptor (Rattus norvegicus) (UniProt P32301)
Assay protocol: Inhibition of [125I]Exendin (9-39) binding to rat GLP1R expressed in HEK293 cells
Assay type: cell-based
Set-up: concentration or dose not given beside the values
Condition notes: concentration not given here
Test readout: inhibition (%)

Previously resolved entries follow.
{"Input smiles": "CNC(=S)Nc1ccc(C(=O)N[C@]2(C(=O)O)[C@H](c3ccc(OC(=O)c4cccs4)c(OC)c3)[C@@](NC(=O)c3ccc(NC(=S)NC)cc3)(C(=O)O)[C@@H]2c2ccc(OC(=O)c3cccs3)c(OC)c2)cc1", "Result units": "%", "inhibition": 70.1}
{"Input smiles": "COc1cc([C@H]2[C@](NC(=O)c3ccc(NC(=O)C(C)C)cc3)(C(=O)O)[C@@H](c3ccc(OC(=O)C4CCC4)c(OC)c3)[C@]2(NC(=O)c2ccc(NC(=O)C(C)C)cc2)C(=O)O)ccc1OC(=O)C1CCC1", "Result units": "%", "inhibition": 36.8}

I = COc1cc([C@H]2[C@](NC(=O)c3ccc(NC(=O)C(C)C)cc3)(C(=O)O)[C@@H](c3ccc(OC(=O)c4cccs4)c(OC)c3)[C@]2(NC(=O)c2ccc(NC(=O)C(C)C)cc2)C(=O)O)ccc1OC(=O)c1cccs1
II = COc1cc([C@H]2[C@](NC(=O)c3ccc(NC(=O)Cc4ccccc4)cc3)(C(=O)O)[C@@H](c3ccc(OC(=O)c4cccs4)c(OC)c3)[C@]2(NC(=O)c2ccc(NC(=O)Cc3ccccc3)cc2)C(=O)O)ccc1OC(=O)c1cccs1
Sorting ascending by inhibition, which comes first: I or II ? // caller expects the label of the chosen entry
II
(II: 33.4%, I: 49.7%)
